Reference source: ChEMBL document CHEMBL4229409

- ASSAY NAME: Reversible inhibition of human arginase using thioarginine as substrate measured up to 360 mins by UV micro plate method
EXPERIMENTAL ENDPOINT: Ki (µM)
Your answer is read as µM, so omit the unit and give the number.

So what's the measured Ki for this one? N[C@@H](CSCCB(O)O)C(=O)O
20

----------
// reported pKi per item
- TESTED SYSTEM: Arginase-2, mitochondrial (Homo sapiens, UniProt P78540)
- Sequence (P78540 whole entry): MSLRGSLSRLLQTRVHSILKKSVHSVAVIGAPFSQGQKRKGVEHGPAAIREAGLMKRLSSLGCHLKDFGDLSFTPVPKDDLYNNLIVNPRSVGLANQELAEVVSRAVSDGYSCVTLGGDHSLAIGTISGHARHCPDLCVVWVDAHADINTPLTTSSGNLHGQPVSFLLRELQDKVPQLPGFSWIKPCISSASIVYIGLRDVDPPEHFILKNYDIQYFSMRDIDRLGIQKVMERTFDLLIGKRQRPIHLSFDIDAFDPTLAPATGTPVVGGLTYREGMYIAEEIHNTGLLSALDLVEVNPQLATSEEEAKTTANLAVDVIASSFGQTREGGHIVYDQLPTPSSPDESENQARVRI
- ASSAY NAME: Irreversible inhibition of human arginase 2 using thioarginine as substrate measured up to 360 mins by UV micro plate method
Here pKi is given on a logarithmic scale as minus log10 of the concentration in mol/L.

So what's the measured pKi for this one? CC(=O)OC(C(=O)O)c1ccc(NC(=N)N)cc1 (configuration not stated)
3.36

Here's the next entry for you.
So what's the measured pKi for this one? N=C(N)Nc1ccc(C(F)C(=O)O)cc1 (configuration not stated)
3.49
